# Intrinsic clearance half-life, Rat Sprague-Dawley hepatocytes values compiled below
System: cryopreserved hepatocytes from rats (Sprague-Dawley males)
Test: Intrinsic clearance in cryopreserved rat hepatocytes
Type: in vitro ADME
Settings: 37° C.

Field: example entries. Status: answers known.
1. CCOc1nc2ccc(OC)cc2n1CCCNC(C)=O: 53 min
2. COc1ccc2cccc(CCNC(C)=O)c2c1: 50 min
3. CCOc1nc2cc(Cl)c(OC)cc2n1CCNC(C)=O: 52 min

q: Identify measured Intrinsic clearance half-life, Rat Sprague-Dawley hepatocytes associated with COc1cc2c(cc1Cl)nc(OC)n2CCNC(C)=O
a: 108 min

q: Output measured Intrinsic clearance half-life, Rat Sprague-Dawley hepatocytes for this item: CCOc1nc2cc(Cl)c(OC)cc2n1CCCNC(C)=O
a: >120.0 min

* * *

Test system: cryopreserved hepatocytes from mice (CD-1 males)
Assay: Intrinsic clearance in cryopreserved mouse hepatocytes
Type: in vitro ADME
Details: 37° C.
readout: Intrinsic clearance half-life, Mouse CD-1 hepatocytes

q: Write down Intrinsic clearance half-life, Mouse CD-1 hepatocytes measured for item CCOc1nc2cc(Cl)c(OC)cc2n1CCCNC(C)=O [IA2-142]
a: >2 h

q: Identify Intrinsic clearance half-life, Mouse CD-1 hepatocytes associated with the compound COc1ccc2cccc(CCNC(C)=O)c2c1 [IA2-76 (agomelatine), agomelatine]
a: 0.417 h

q: Identify measured Intrinsic clearance half-life, Mouse CD-1 hepatocytes corresponding to CCOc1nc2ccc(OC)cc2n1CCCNC(C)=O [IA2-120]
a: >2 h

q: Give reported Intrinsic clearance half-life, Mouse CD-1 hepatocytes value for CCOc1nc2cc(Cl)c(OC)cc2n1CCNC(C)=O [IA2-121]
a: >2 h

* * *

Test: Pharmacokinetics in CD-1 mouse, I.V. and oral
Type: in vivo
Conditions: intravenous
readout: C0 compared to agomelatine

1. CCOc1nc2ccc(OC)cc2n1CCCNC(C)=O: higher
2. CCOc1nc2cc(Cl)c(OC)cc2n1CCCNC(C)=O: higher
3. CCOc1nc2cc(Cl)c(OC)cc2n1CCNC(C)=O: higher
4. COc1cc2c(cc1Cl)nc(OC)n2CCNC(C)=O: higher
